Source: paper PMC9299702

List of Kd values.
tested_on: maytansine site of tubulin (Bos taurus)
Construct: Purified calf brain tubulin and chemicals were obtained as previously described; from tissue; host or cells: calf brain
Sequence (Q6B856 whole entry): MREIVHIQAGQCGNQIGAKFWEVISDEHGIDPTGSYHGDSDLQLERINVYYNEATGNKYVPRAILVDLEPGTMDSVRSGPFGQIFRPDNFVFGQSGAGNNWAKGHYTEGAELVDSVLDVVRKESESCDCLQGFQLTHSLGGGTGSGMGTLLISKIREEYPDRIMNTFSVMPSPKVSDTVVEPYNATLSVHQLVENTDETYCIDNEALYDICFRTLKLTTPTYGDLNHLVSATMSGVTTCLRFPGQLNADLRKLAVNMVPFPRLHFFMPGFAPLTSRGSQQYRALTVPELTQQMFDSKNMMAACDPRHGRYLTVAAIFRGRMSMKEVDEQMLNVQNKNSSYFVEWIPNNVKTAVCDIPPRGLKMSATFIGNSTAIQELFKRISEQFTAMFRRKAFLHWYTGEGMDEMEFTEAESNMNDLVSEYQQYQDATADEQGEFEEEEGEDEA
Sequence (P81947 whole entry partner): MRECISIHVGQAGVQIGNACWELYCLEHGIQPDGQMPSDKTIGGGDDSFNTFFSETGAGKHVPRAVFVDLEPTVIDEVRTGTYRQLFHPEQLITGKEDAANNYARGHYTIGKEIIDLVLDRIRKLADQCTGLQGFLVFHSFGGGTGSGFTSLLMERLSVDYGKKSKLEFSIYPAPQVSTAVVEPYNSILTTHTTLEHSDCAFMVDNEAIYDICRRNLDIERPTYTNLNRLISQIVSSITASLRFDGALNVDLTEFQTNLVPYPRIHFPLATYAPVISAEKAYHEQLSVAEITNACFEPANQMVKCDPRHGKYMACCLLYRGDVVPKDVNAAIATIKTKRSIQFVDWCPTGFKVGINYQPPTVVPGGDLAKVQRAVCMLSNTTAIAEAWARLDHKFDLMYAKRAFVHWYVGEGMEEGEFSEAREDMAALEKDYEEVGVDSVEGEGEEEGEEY
test_details: biochemical
Format: binding, calf
measurement_setup: competition against Fc maytansine; read-out: K d
Answer format: numeric, nM implied, no suffix.

Would you please look over these solved cases?
C#CCCCCC(=O)OC1CC(=O)N(C)c2cc(cc(OC)c2Cl)CC(C)=CC=CC(OC)C2(O)CC(OC(=O)N2)C(C)C2OC12C (stereo not drawn) [4 c] | 20
COc1cc2cc(c1Cl)N(C)C(=O)C[C@H](OC(=O)c1ccccc1)[C@]1(C)O[C@H]1[C@H](C)[C@@H]1C[C@@](O)(NC(=O)O1)[C@H](OC)/C=C/C=C(\C)C2 [4 a] | 51

Answer with reported Kd of COc1cc2cc(c1Cl)N(C)C(=O)CC(OC(=O)c1ccccc1)C1(C)OC1C(C)C1C=C(C(OC)C=CC=C(C)C2)N(C(=O)c2ccccc2)C(=O)O1 (stereo not drawn) [7 a]
2000
